Target: Purine nucleoside phosphorylase (Homo sapiens, UniProt P00491)
Sequence (P00491 whole entry): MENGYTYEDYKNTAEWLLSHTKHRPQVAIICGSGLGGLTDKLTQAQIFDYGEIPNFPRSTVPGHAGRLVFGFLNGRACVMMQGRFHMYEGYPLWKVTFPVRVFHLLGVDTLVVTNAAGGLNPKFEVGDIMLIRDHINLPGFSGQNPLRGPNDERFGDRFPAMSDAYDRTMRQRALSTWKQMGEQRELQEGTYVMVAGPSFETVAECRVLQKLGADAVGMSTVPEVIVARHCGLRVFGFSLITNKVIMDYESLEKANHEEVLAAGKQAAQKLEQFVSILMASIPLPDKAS
Experiment: Competitive inhibition of PNP in human HBL2 tumor cells using MSEG as substrate by Dixon-plot analysis
Format: cell-based
Quick list: pKi per entry.
Friendly reminder that pKi comes from taking -log10 of the concentration in mol/L.

{"mol smiles": "Nc1nc2c(ncn2[C@@H]2CN(C(=O)P(=O)(O)O)C[C@@H]2O)c(=O)[nH]1", "pKi": 7.62}

The record that follows has no pKi shown yet.
Query: Lookup: pKi / Purine nucleoside phosphorylase (Homo sapiens, UniProt P00491) / Nc1nc2c(ncn2[C@H]2CCN(C(=O)P(=O)(O)O)C2)c(=O)[nH]1
Result: 7.00
